Test: qHTS assay to identify small molecule antagonists of the farnesoid-X-receptor (FXR) signaling pathway - cell viability counter screen (AID 743221); note: nearly all actives have a fitted effect of over 50% in size
Conditions: FXR-bla HEK293T viability, CellTiter-Glo luminescence, 16 h; series mostly up to 62.6 µM
Results filed as inconclusive are left out. Active and inactive are the calls of the source. Calls come from the whole dose curve; as a rule, active = well fitted cell-killing curve with a large enough effect in the repeat runs (not every such curve was filed as active); inconclusive = weak or mixed curves, or effect the other way; inactive = no such curve, though single readings can be large or run the other way.
measurement.type: outcome

1. CCN(CC)CCO :: inactive
2. CC(C)C1(C)N=C(c2nc3ccccc3cc2C(=O)O)NC1=O (centres undefined) :: inactive
3. CCCCN(CCCC)SN(C)C(=O)Oc1cccc2c1OC(C)(C)C2 :: inactive
4. CC(Oc1ccc(Cl)cc1Cl)C(=O)O (centres undefined) :: inactive
5. CCC[N+](=O)[O-] :: inactive
6. COP(N)(=O)SC (centres undefined) :: inactive
7. O=[N+]([O-])c1ccccc1 :: inactive
8. Clc1ccc(Cl)cc1 :: inactive
9. CN(N=O)c1ccccc1 :: inactive
10. COC(=O)c1ccccc1C(=O)OC :: inactive
11. CCOP(=S)(OCC)SCCSCC :: inactive
12. CN(C)N=O :: inactive
13. CCCCCCCCCl :: inactive
14. CC(C)(C)OOC(=O)c1ccccc1 :: inactive
15. OC(O)C(Cl)(Cl)Cl :: inactive
16. [O-][Cl+2]([O-])O :: inactive
17. CCCN(CCC)N=O :: inactive
18. Cc1cc(Cl)ccc1O :: inactive
19. CC(C)OC(=O)Nc1cccc(Cl)c1 :: inactive
20. O=C1CCCN1 :: inactive
21. C#CCN(C)[C@H](C)Cc1ccccc1 :: inactive
22. CCC(C)(CC)c1cc(NC(=O)c2c(OC)cccc2OC)on1 :: inactive
23. CC(C)(C)OOC(C)(C)C :: inactive
24. CC(=O)C=C(C)C :: inactive
25. C=CCO :: inactive
26. CN(C)CCO :: inactive
27. Nc1ccc(Cc2ccc(N)cc2)cc1 :: inactive
28. CCC[CH2][Sn]([Cl])([Cl])[Cl] :: inactive
29. CC(C)NC(=O)N1CC(=O)N(c2cc(Cl)cc(Cl)c2)C1=O :: inactive
30. CC(C)(Cl)Cl :: inactive
31. O=c1ccc(=O)[nH][nH]1 :: inactive
32. COC(=O)NS(=O)(=O)c1ccc(N)cc1 :: inactive
33. CNC(=O)Oc1ccccc1OC(C)C :: inactive
34. ClCc1cccnc1 :: inactive
